Assay: Selectivity ratio of Ki for sigma 2 receptor in rat liver membranes to Ki for sigma 1 receptor in guinea pig brain membranes
Type: cell membranes
Conditions: Membrane
QUANTITY_KIND: Ratio Ki

{"COMPOUND": "COc1cccc2c1CCCC2CCCCN1CCCC(C)(C)C1 (stereo not drawn)", "RESULT": 117}

I: CC1(C)CCCN(CCCCC2CCc3ccccc32)C1 (stereo not drawn)
II: CC1(C)CCCN(CCNc2nc3ccccc3s2)C1
Task: Smaller Ratio Ki value? Options are I and II Lab log: write the label of the selected item as the result.
Result: II
(II: 1.3, I: 138)

====

Test: Displacement of [3H]DTG from sigma 2 receptor in rat liver membranes
Assay type: cell membranes, Membrane
Settings: read-out: Ki(app)
pKi: −log10 of the molar value.
QUANTITY_KIND: pKi

Answered examples (3):
{"MOLECULE": "CC1(C)CCCN(CCCc2c[nH]c3ccccc23)C1", "RESULT": 6.96}
{"MOLECULE": "CC1(C)CCCN(CCCCC2CCCCc3ccccc32)C1 (racemic)", "RESULT": 7.18}
{"MOLECULE": "CC1(C)CCCN(CCCC2CCCc3sccc32)C1 (racemic)", "RESULT": 7.42}

1: CC1(C)CCCN(CCCCC2CCCCC2)C1
2: CC1(C)CCCN(CCCCC2CCc3ccccc32)C1 (stereo unspecified)
Task: Hi team, can someone confirm which has the larger pKi: 1 or 2 ? Thanks. Give the chosen item's label as your response.
Result: 1
